# measured-on: T1, 4H481-AA
# T1 chain: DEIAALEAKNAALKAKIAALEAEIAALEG
# measurement-protocol: two-hybrid library CCmax;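 note: natural log of median RNA to DNA barcode read ratio; higher means stronger binding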
# condition-label: mean of both orientations
quantity: interaction score

- DEIAALKAKNAALKAKNAALKAEIAALEG [4H1017-AA]: -1.63
- DKIAALKAEIAALEAKIAALKAKNAALKG [4H2608-AA]: 1.33
- DENAALEAENAALEAKIAALKAKIAALKG [4H1198-AA]: 1.9

[P] DKNAALKAKIAALKAENAALEAEIAALKG [4H3922-AA]
[Q] DENAALEAKIAALKAEIAALEAKIAALKG [4H1350-AA]
[R] DKIAALKAKIAALKAKNAALEAKNAALEG [4H2935-AA]
[S] DKNAALKAEIAALKAEIAALKAKNAALKG [4H3664-AA]
input: Sort low-to-high on interaction score, please. Labels, requested order.
output: R, S, Q, P

Data provenance: paper PMC10397247
